System: Human immunodeficiency virus
method.notes: Antiviral activity against HIV infected in human MT4 cells by XTT assay
Format: functional, organism-based
condition.details: Human immunodeficiency virus 1, MT4
Record form. Attribute: pEC50. Fill in for each entry.
# pEC50: negative log10 of molar concentration; output just the value

What measured pEC50 goes with CNC(=O)[C@@H](NC(=O)[C@@](O)(CCCN(Cc1ccc(C#Cc2ccccn2)cc1)NC(=O)[C@@H](NC(=O)OC)C(C)(C)C)Cc1ccccc1)C(C)(C)C ?
5.92

What do you have for CNC(=O)[C@H](C)NC(=O)[C@@](O)(CCCN(Cc1ccc(Br)cc1)NC(=O)[C@@H](NC(=O)OC)C(C)(C)C)Cc1ccccc1 ?
5.59

* * *

method.notes: Intrinsic clearance in human liver microsomes after 30 mins by LC-MS/MS analysis
Assay type: ADME
condition.details: read-out: CLH
property.label: microsomal CLint (µL/min/mg)
Answer format: numeric, µL/min/mg implied, no suffix.

Fill blank: measured microsomal CLint of the compound CNC(=O)[C@@H](NC(=O)[C@@](O)(CCCN(Cc1ccc(Br)cc1)NC(=O)[C@@H](NC(=O)OC)C(C)(C)C)Cc1ccccc1)C(C)(C)C is ____.
180

Check CNC(=O)[C@@H](NC(=O)[C@@](O)(CCCN(Cc1ccc(-c2ccncc2)cc1)NC(=O)[C@@H](NC(=O)OC)C(C)(C)C)Cc1ccccc1)C(C)(C)C too.
20

Now the compound CNC(=O)[C@@H](NC(=O)[C@@](O)(CCCN(Cc1ccc(-c2cccnc2)cc1)NC(=O)[C@@H](NC(=O)OC)C(C)(C)C)Cc1ccccc1)C(C)(C)C
63

* * *

method.notes: Cytotoxicity against human MT4 cells after 5 days by XTT assay
Assay type: cell-based
property.label: CC50 at 120 h

Fill blank: measured CC50 at 120 h of the compound CNC(=O)[C@@H](NC(=O)[C@@](O)(CCCN(Cc1ccc(-c2nccs2)cc1)NC(=O)[C@@H](NC(=O)OC)C(C)(C)C)Cc1ccccc1)C(C)(C)C is ____.
> 50 µM

Please do the same for CNC(=O)[C@H](C)NC(=O)[C@@](O)(CCCN(Cc1ccc(Br)cc1)NC(=O)[C@@H](NC(=O)OC)C(C)(C)C)Cc1ccccc1 as well.
> 10 µM

Then CNC(=O)[C@@H](NC(=O)[C@@](O)(CCCN(Cc1ccc(-c2ccccn2)cc1)NC(=O)[C@@H](NC(=O)OC)C(C)(C)C)Cc1ccccc1)C(C)(C)C ?
> 50 µM

* * *

System: Human immunodeficiency virus
method.notes: Antiviral activity against HIV infected in human MT4 cells by XTT assay
Format: functional, organism-based
condition.details: Human immunodeficiency virus 1, MT4
Please provide measured EC50 for the entries that follow.

Which EC50 value belongs to CNC(=O)[C@@H](NC(=O)[C@@](CCCN(Cc1ccc(Br)cc1)NC(=O)[C@@H](NC(=O)OC)C(C)(C)C)(Cc1ccccc1)O[Si](C)(C)C(C)(C)C)C(C)(C)C ?
> 10 µM

Next molecule up: CNC(=O)[C@@H](NC(=O)[C@](O)(CCCN(Cc1ccc(Br)cc1)NC(=O)[C@@H](NC(=O)OC)C(C)(C)C)Cc1ccccc1)C(C)(C)C
> 10 µM

Also need CNC(=O)[C@@H](NC(=O)[C@@](O)(CCCN(Cc1ccc(-c2ccsc2)cc1)NC(=O)[C@@H](NC(=O)OC)C(C)(C)C)Cc1ccccc1)C(C)(C)C , thanks.
1 µM
